# System: HL-60
# assay procedure: NCI tumour cell line growth inhibition, 48 h
Active and inactive are the calls of the source. No stated cut-off is given here; in the data, active = GI50 up to about 1.1 µM and inactive = higher.
The reply should be one of these categories: active, inactive

compound="COc1ccc(/C=C\\c2cc(OC)c(OC)c(OC)c2)cc1OC(=O)C(N)CCC(=O)O (stereo not drawn)" label=active
compound=CCOC(=O)c1sc2c(sc(=O)n2-c2ccccc2)c1O label=inactive
compound=O=C1/C(=C(\Nc2ccccc2)c2ccccc2)C=NN1c1ccccc1 label=inactive
compound="CSc1ccn(C2CC(F)C(CO)O2)c(=O)n1 (stereo not drawn)" label=inactive
compound="O=[N+]([O-])c1ccccc1C1SCc2nc3ccccc3n21 (stereo not drawn)" label=inactive
compound=COCc1cc2c(cc1/C=C/[N+](=O)[O-])OCO2 label=inactive

Req: What classification did `N#Cc1c(-c2ccco2)cc(-c2ccc(N)cc2)[nH]c1=O` end up with in this test?
Resp: inactive
